System: SK-MEL-28 melanoma
Experiment: NCI tumour cell line growth inhibition, 48 h
compounds and their reported TGI

Please review the following examples before continuing.
- compound: "COc1ccc(OC)c(NCC(=O)Nn2cnc3ccc(S(=O)(=O)Nc4cc(OC)ccc4OC)cc3c2=O)c1"
  readout_kind: "TGI"
  experimental_value: "> 100 µM"
- compound: "C=CCNC(=S)N1CC(C)C(=O)Nc2cc(Cl)ccc21 (stereo not drawn)"
  readout_kind: "TGI"
  experimental_value: "> 100 µM"
- compound: "CCCCN1CCCC[C@@H]1C(=O)N[C@H](C(=O)N(C)[C@H](C[C@@H](OC(C)=O)c1nc(C(=O)NC2CCC(C(=O)OC)CC2)cs1)C(C)C)C(C)C (stereo partly drawn)"
  readout_kind: "TGI"
  experimental_value: "> 25 µM"
- compound: "OC1c2ccccc2CCC1CN1CCN(CCOC(c2ccc(F)cc2)c2ccc(F)cc2)CC1 (stereo not drawn)"
  readout_kind: "TGI"
  experimental_value: "26.6 µM"
- compound: "O=C/C1=C/C2=Cc3ccccc3C=C(/C=C(/C=O)C1)C2"
  readout_kind: "TGI"
  experimental_value: "> 100 µM"
- compound: "CC/C=C\\C[C@H](F)C/C=C1/C(=O)C=C[C@@H]1C/C=C\\CCCC(=O)OC"
  readout_kind: "TGI"
  experimental_value: "4.94 µM"

Inquiry: Which TGI is listed for CC(C)N1CCN(c2ccncc2S(=O)(=O)N2CCCCC2)CC1 ?
Reply text: > 100 µM

Inquiry: TGI lookup needed for O=C1CSC(=S)N1c1ccco1 , thanks.
Reply text: > 100 µM
